- assayed_target: IDH1 R132H (Homo sapiens, UniProt O75874, R132H)
- Sequence (O75874 whole entry R132H): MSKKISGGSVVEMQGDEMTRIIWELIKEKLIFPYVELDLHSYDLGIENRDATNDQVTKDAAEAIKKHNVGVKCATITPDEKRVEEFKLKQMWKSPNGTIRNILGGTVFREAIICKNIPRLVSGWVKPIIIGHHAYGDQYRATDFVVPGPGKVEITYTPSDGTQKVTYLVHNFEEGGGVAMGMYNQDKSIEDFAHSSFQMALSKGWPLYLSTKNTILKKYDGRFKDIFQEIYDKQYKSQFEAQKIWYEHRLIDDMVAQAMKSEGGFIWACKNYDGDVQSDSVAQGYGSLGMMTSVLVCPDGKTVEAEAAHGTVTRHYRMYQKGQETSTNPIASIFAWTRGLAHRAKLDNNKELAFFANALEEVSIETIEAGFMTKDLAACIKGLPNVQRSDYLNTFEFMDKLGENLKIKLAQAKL
- protocol_description: Enzymatic inhibition assay, mutant IDH1 R132H (NADPH depletion coupled to diaphorase/resazurin)
- test_context: IDH1 R132H enzyme, IC50 class
result_type: IC50

- compound: "CCc1ccc(OC)cc1-n1c(C=C(C)C)c(C(=O)N2CCNCC2)cc(-c2nc(-c3ccc(C(F)(F)F)cc3)cs2)c1=O [Compound 102]"
  assayed_target: "IDH1 R132H (Homo sapiens, UniProt O75874, R132H)"
  IC50: "< 300 nM"
- compound: "CCOc1ccc(Cl)c(-n2c(C=C(C)C)c(C(=O)N3CCNCC3)cc(-c3nc(-c4ccc(Cl)cc4)cs3)c2=O)c1 (single isomer, unassigned) [Compound 139-2]"
  assayed_target: "IDH1 R132H (Homo sapiens, UniProt O75874, R132H)"
  IC50: "300 to 1000 nM"
- compound: "CCOc1ccc(Cl)cc1-n1c(C=C(C)C)c(C(=O)N2CC3CCC(C2)N3)cc(-c2nc(-c3ccc(Cl)cc3)cs2)c1=O [Compound 113]"
  assayed_target: "IDH1 R132H (Homo sapiens, UniProt O75874, R132H)"
  IC50: "< 300 nM"
- compound: "CCOc1ccc(N(CC)CC)cc1-n1c(C=C(C)C)c(C(=O)N2CCNCC2)cc(-c2nc(-c3ccc(Cl)cc3)cs2)c1=O [Compound 145]"
  assayed_target: "IDH1 R132H (Homo sapiens, UniProt O75874, R132H)"
  IC50: "< 300 nM"
- compound: "CNc1ccc(Cl)c(-n2c(C=C(C)C)c(C(=O)N3CCNCC3)cc(-c3nc(-c4ccc(Cl)cc4)cs3)c2=O)c1 [Compound 148]"
  assayed_target: "IDH1 R132H (Homo sapiens, UniProt O75874, R132H)"
  IC50: "< 300 nM"
- compound: "CCc1ccc(OC)cc1-n1c(C=C(C)C)c(C(=O)N2CCNCC2)cc(-c2nc(-c3ccc(C(F)F)cc3)cs2)c1=O [Compound 104]"
  assayed_target: "IDH1 R132H (Homo sapiens, UniProt O75874, R132H)"
  IC50: "< 300 nM"
- compound: "CCc1ccc(Cl)cc1-n1c(C=C(C)C)c(C(=O)N2CC3CCC(C2)N3)cc(-c2nc(-c3ccc(Cl)cc3)cs2)c1=O [Compound 133]"
  assayed_target: "IDH1 R132H (Homo sapiens, UniProt O75874, R132H)"
  IC50: "< 300 nM"
- compound: "CCc1ccc(N(C)C)cc1-n1c(C=C(C)C)c(C(=O)N2CC3CCC(C2)N3)cc(-c2nc(-c3ccc(Cl)cc3)cs2)c1=O [Compound 134]"
  assayed_target: "IDH1 R132H (Homo sapiens, UniProt O75874, R132H)"
  IC50: "< 300 nM"

Any idea what IC50 was measured for CCc1cccc(CC)c1-n1c(C=C(C)C)c(C(=O)N2CCNC[C@H]2C)cc(-c2nc(-c3ccc(Cl)cc3)cs2)c1=O [Compound 123] ?
< 300 nM

Any idea what IC50 was measured for CCOc1ccc(Cl)cc1-n1c(C=C(C)C)c(C(=O)N2CC3CCC(C2)N3)cc(-c2nc(-c3ccc(C#N)cc3)cs2)c1=O (single isomer, unassigned) [Compound 141-2] ?
300 to 1000 nM

Any idea what IC50 was measured for CCc1ccc(Cl)cc1-n1c(C=C(C)C)c(C(=O)N2CC3CCC(C2)N3)cc(-c2nc(-c3ccc(Cl)cc3)cs2)c1=O (single isomer, unassigned) [Compound 133-1] ?
300 to 1000 nM

---

- assayed_target: IDH1 R132C (Homo sapiens, UniProt O75874, R132C)
- Sequence (O75874 whole entry R132C): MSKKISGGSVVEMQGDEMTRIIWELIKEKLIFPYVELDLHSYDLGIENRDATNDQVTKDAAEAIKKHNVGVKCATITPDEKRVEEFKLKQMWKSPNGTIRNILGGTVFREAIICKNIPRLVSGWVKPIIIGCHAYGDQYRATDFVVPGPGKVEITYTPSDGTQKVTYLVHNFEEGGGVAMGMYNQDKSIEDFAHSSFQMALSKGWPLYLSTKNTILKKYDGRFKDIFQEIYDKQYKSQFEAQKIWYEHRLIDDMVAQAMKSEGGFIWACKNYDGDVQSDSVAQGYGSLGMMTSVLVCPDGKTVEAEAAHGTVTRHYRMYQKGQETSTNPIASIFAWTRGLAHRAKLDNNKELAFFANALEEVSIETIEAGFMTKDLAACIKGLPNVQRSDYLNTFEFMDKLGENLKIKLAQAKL
- protocol_description: Enzymatic inhibition assay, mutant IDH1 R132C (NADPH depletion coupled to diaphorase/resazurin)
- test_context: IDH1 R132C enzyme, IC50 class
result_type: IC50

Worked examples follow.
- compound_structure: "CCOc1ccc(Cl)c(-n2c(C=C(C)C)c(C(=O)N3CCNCC3)cc(-c3nc(-c4ccc(C(F)F)cc4)cs3)c2=O)c1"
  IC50: "< 300 nM"
- compound_structure: "CCc1ccc(Cl)cc1-n1c(C=C(C)C)c(C(=O)N2CCNCC2)cc(-c2nc(-c3ccc(C(F)(F)F)nc3)cs2)c1=O"
  IC50: "1000 to 5000 nM"
- compound_structure: "CCOc1ccc(Cl)c(-n2c(C=C(C)C)c(C(=O)N3CC4CCC(C3)N4)cc(-c3nc(-c4ccc(OC)nc4)cs3)c2=O)c1"
  IC50: "< 300 nM"
- compound_structure: "CCOc1ccc(N(CC)CC)cc1-n1c(C=C(C)C)c(C(=O)N2C[C@H]3CC[C@@H](C2)N3)cc(-c2nc(-c3ccc(Cl)cc3)cs2)c1=O"
  IC50: "300 to 1000 nM"
- compound_structure: "CCOc1ccc(Cl)c(-n2c(C=C(C)C)c(C(=O)N3CCNCC3)cc(-c3nc(-c4ccc(C(F)(F)F)cc4)cs3)c2=O)c1"
  IC50: "< 300 nM"

Shift focus to the following entry.
Any idea what IC50 was measured for CCc1ccc(OC)cc1-n1c(C=C(C)C)c(C(=O)N2CCNCC2)cc(-c2nc(-c3ccc(C(F)(F)F)nc3)cs2)c1=O ?
< 300 nM
